- target.under.test: NDM-1 (Klebsiella pneumoniae)
- experimental.protocol: NDM-1 inhibition with chromacef substrate
- Type: biochemical
pIC50: −log10 of the molar value.
property.label: pIC50

- O=C(O)c1cccc(C(=O)O)n1 [DPA, dipicolinic acid]: 3.81

====

- target.under.test: Δ35 NDM-1 expressing BL21 (DE3) E. coli (Klebsiella pneumoniae, UniProt C7C422)
- experimental.protocol: cell-based
property.label: IC50

• O=C(O)c1cccc(C(=O)O)n1 = ~200 µM

Sourced from paper PMC8230704
